The reader will find reported AUC values listed item by item below.
ASSAY_PROCEDURE: Pharmacokinetics in rats, intravenous or intraduodenal administration, plasma concentration
Format: in vivo
EXPERIMENTAL_CONDITIONS: i.d., 10.0 mg/kg
MEASUREMENT_LABEL: AUC (µg/mL/min)

INSERT INTO assay_data (compound, unit_symbol, recorded_result) VALUES
  ('Cc1ccccc1CNC(=O)[C@@H]1CSCN1C(=O)[C@@H](O)[C@H](Cc1ccccc1)NC(=O)c1cccc(O)c1C [Compound of example 34]', 'µg/mL/min', 40),
  ('CSC[C@H](NC(=O)COc1cccc2cnccc12)C(=O)N[C@@H](Cc1ccccc1)[C@H](O)C(=O)N1CSC[C@H]1C(=O)NC(C)(C)C [KNI-272, reference compound]', 'µg/mL/min', 98),
  ('CCc1c(O)cccc1C(=O)N[C@@H](Cc1ccccc1)[C@H](O)C(=O)N1CSC(C)(C)[C@H]1C(=O)NC(C)(C)C [Compound of example 36]', 'µg/mL/min', 64),
  ('CCc1c(O)cccc1C(=O)N[C@@H](Cc1ccccc1)[C@H](O)C(=O)N1CSC[C@H]1C(=O)NC(C)(C)C [Compound of example 31]', 'µg/mL/min', 99),
  ('Cc1ccccc1CNC(=O)[C@H]1N(C(=O)[C@@H](O)[C@H](Cc2ccccc2)NC(=O)c2cccc(O)c2C)CSC1(C)C [Compound of example 37]', 'µg/mL/min', 55);
